- Test system: CCRF-CEM leukemia
- EXPERIMENTAL PROTOCOL: NCI tumour cell line growth inhibition, 48 h; in the data active = GI50 below about 0.43 µM; inactive = the rest
Possible outcomes: active, inactive

{"COMPOUND": "CC1=C([Se]CC(OC(=O)[C@@H](CO)NC(=O)OC(C)(C)C)C(=O)NC(C)(C)C)C(=O)c2ccccc2C1=O (some centres undefined)", "LABEL VALUE": "inactive"}
{"COMPOUND": "O=C1/C(=C\\c2coc3ccccc3c2=O)c2ccccc2N1c1c(Cl)cccc1Cl", "LABEL VALUE": "inactive"}
{"COMPOUND": "COc1cc([C@@H]2c3cc4c(cc3[C@H](O)[C@H]3COC(=O)[C@H]23)OCO4)cc(OC)c1OC", "LABEL VALUE": "active"}
{"COMPOUND": "COc1ccc(-c2cc(/C=C3\\C(=O)Nc4ccc(OC)cc43)[nH]n2)cc1", "LABEL VALUE": "inactive"}
